System: HAP1 MTAP-intact
procedure details: SDMA in-cell western assay, HAP1 MTAP-intact cell line
Assay type: cell-based
condition notes: Homo sapiens
pIC50: −log10 of the molar value.
assay endpoint: pIC50

smiles_representation=CC(=O)N1CCN(c2cc(C(=O)NC[C@H](O)CN3CCc4c(ccc(OCc5cnco5)c4Cl)C3)cc(NC3CCC3)n2)CC1 measurement="≤ 5.00"
smiles_representation=CCN1CCN(c2nc(NC3COC3)cc(C(=O)NC[C@H](O)CN3CCc4c(ccc(OCc5ocnc5C)c4C)C3)n2)CC1 measurement="≤ 5.00"
smiles_representation=CCC(=O)N1CC(Nc2cc(C(=O)NC[C@H](O)CN3CCc4cc(OCc5cnco5)ccc4C3)ccn2)C1 measurement="5.00 to 6.00"
smiles_representation=Cc1ncoc1COc1ccc2c(c1)CCN(C[C@@H](O)CNC(=O)c1ccnc(NC3CCC3)c1)C2 measurement="> 6.00"
smiles_representation=Cc1c(OCc2cnco2)ccc2c1CCN(C[C@@H](O)CNC(=O)c1cc(NC3CCCC3)ncn1)C2 measurement="≤ 5.00"
smiles_representation=Cc1ncoc1COc1ccc2c(c1C)CCN(C[C@@H](O)CNC(=O)c1cc(CC(C)C)nc(NC3CCC3)c1)C2 measurement="≤ 5.00"
smiles_representation=CCN(C)c1nc(NC2COC2)cc(C(=O)NC[C@H](O)CN2CCc3c(ccc(OCc4cnco4)c3Cl)C2)n1 measurement="≤ 5.00"
smiles_representation=CC(=O)N1CC(Nc2cc(C(=O)NC[C@H](O)CN3CCc4c(ccc(OCc5ocnc5C)c4C)C3)nc(C(C)(C)C)n2)C1 measurement="≤ 5.00"

# batch: return pIC50 for each of the 3 molecules below
1. Cc1ncoc1COc1ccc2c(c1)CCN(C[C@@H](O)CNC(=O)c1cc(NC3COC3)nc(N3CCN(C(C)C)CC3)n1)C2
2. CCN1CCN(c2nc(NC3COC3)cc(C(=O)NC[C@H](O)CN3CCc4c(ccc(OCc5cnco5)c4Cl)C3)n2)CC1
3. Cc1ncoc1COc1cc(F)c2c(c1)CCN(C[C@@H](O)CNC(=O)c1ccnc(NC3CCC3)c1)C2

1: 5.00 to 6.00; 2: ≤ 5.00; 3: ≤ 5.00

# batch: return pIC50 for each of the 3 molecules below
1. O=C(NC[C@H](O)CN1CCc2c(ccc(OCc3cnco3)c2Cl)C1)c1ccnc(NC2CCC2)c1
2. Cc1ncoc1COc1ccc2c(c1Br)CCN(C[C@@H](O)CNC(=O)c1ccnc(NC3CCCCC3)c1)C2
3. COc1ccc(C(=O)N2CCc3cc(C(=O)NC[C@H](O)CN4CCc5c(ccc(OCc6ocnc6C)c5C)C4)ccc3C2)cc1

≤ 5.00
≤ 5.00
≤ 5.00

---

system: PRMT5 (Homo sapiens)
Construct: purchased Viva (custom protein)
Sequence (O14744 whole entry): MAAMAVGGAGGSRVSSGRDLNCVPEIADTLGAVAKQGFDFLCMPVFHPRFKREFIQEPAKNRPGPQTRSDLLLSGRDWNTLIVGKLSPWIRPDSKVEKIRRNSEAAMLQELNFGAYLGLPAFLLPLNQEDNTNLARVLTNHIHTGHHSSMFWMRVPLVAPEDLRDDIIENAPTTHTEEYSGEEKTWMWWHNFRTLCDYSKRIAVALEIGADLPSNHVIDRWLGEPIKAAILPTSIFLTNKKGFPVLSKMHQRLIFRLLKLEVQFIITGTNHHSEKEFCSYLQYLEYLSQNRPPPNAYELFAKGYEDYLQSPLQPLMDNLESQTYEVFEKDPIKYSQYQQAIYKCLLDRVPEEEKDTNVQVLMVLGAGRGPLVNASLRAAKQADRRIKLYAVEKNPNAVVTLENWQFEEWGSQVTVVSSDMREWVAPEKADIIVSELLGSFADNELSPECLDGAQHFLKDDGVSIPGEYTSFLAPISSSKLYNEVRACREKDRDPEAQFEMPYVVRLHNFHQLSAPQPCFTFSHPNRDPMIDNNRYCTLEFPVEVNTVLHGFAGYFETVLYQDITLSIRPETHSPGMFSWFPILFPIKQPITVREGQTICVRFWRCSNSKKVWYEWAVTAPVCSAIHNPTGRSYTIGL
Sequence (Q9BQA1 whole entry partner): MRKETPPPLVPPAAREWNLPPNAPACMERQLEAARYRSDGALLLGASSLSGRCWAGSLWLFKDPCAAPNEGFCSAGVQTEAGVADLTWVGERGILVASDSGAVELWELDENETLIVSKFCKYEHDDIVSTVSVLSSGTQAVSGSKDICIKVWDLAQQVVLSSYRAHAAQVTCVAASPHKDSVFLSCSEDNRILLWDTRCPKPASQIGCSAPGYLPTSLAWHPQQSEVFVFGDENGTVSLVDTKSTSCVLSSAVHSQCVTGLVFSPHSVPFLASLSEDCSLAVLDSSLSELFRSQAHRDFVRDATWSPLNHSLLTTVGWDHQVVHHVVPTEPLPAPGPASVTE
procedure details: PRMT5 IC50 assay with no cofactor
Type: biochemical
Excerpt: Table 1a indicates IC50 values (μM) against PRMT5 for exemplary compounds in the presence of SAM as cofactor, with no cofactor and with MTA as cofactor, respectively (columns 3-5). […] The Ki values can be calculated from the IC50 values as described in the Examples section. As detailed in the Examples section, for the assay performed in the presence of SAM, IC50=Ki×1.5 (Ki=IC50/1.5). For the assay performed in the presence of MTA, IC50=Ki×13.5 (Ki=IC50/13.5). […]
pIC50: −log10 of the molar value.
assay endpoint: pIC50

smiles_representation=Cc1c(OCc2cnco2)ccc2c1CCN(C[C@@H](O)CNC(=O)c1ccnc(N[C@H]3C[C@@H](CO)C3)c1)C2 assay_endpoint=pIC50 measurement="≤ 5.30"
smiles_representation=COc1ccc(C(=O)N2CCc3cc(C(=O)NC[C@H](O)CN4CCc5cc(OCc6cnco6)ccc5C4)ccc3C2)cc1 assay_endpoint=pIC50 measurement="5.30 to 6.30"
smiles_representation=Cc1ncoc1COc1ccc2c(c1C)CCN(C[C@@H](O)CNC(=O)c1cc(CC(C)C)nc(NC3CCC3)c1)C2 assay_endpoint=pIC50 measurement="≤ 5.30"

# batch: return pIC50 for each of the 4 compounds below
1. CC(=O)N1CCC(Nc2ccnc(C(=O)NC[C@H](O)CN3CCc4cc(OCc5cnco5)ccc4C3)c2)CC1
2. CO[C@H]1CC[C@H](Nc2cc(C(=O)NC[C@H](O)CN3CCc4c(ccc(OCc5cnco5)c4C)C3)ncn2)CC1
3. CC(=O)N1CCC(Nc2cncc(C(=O)NC[C@H](O)CN3CCc4cc(OCc5cnco5)ccc4C3)c2)CC1
4. COc1ccc(C(=O)N2CCc3cc(C(=O)NC[C@H](O)CN4CCc5c(ccc(OCc6ocnc6C)c5C)C4)ccc3C2)cc1

5.30 to 6.30
≤ 5.30
5.30 to 6.30
≤ 5.30
